# MIC annotations
system: Clostridium perfringens; experiment: microbe, parasite or virus in culture; assay type: cell-based; conditions: Clostridium perfringens, read-out: MIC value against Clostridium perfringens, strain H12-1 (H-type)
OUTCOME MEASURE: MIC (µg/mL)

COMPOUND	TARGET SYSTEM	UNIT SPEC	RELATION	READOUT VALUE
O=C(Nc1ccc(C(F)(F)F)c(Cl)c1Cl)c1cc(Cl)ccc1O [BAB159]	Clostridium perfringens	µg/mL	=	0.25
CCC[C@@H]1C[C@@H](C(=O)N[C@@H]([C@H]2O[C@H](SC)[C@H](O)[C@@H](O)[C@H]2O)[C@@H](C)O)N(C)C1 [LIN, Lincomycin]	Clostridium perfringens	µg/mL	=	0.5
C=C[C@]1(C)C[C@@H](OC(=O)CSCCN(CC)CC)[C@]2(C)[C@H](C)CC[C@]3(CCC(=O)[C@H]32)[C@@H](C)[C@@H]1O [TIA, Tiamulin]	Clostridium perfringens	µg/mL	=	0.5
CC[C@H]1OC(=O)C[C@@H](O)[C@H](C)[C@@H](O[C@@H]2O[C@H](C)[C@@H](O)[C@H](N(C)C)[C@H]2O)[C@@H](CCN2C[C@H](C)C[C@H](C)C2)C[C@@H](C)C(=O)/C=C/C(C)=C/[C@@H]1CO[C@@H]1O[C@H](C)[C@@H](O)[C@@H](OC)[C@H]1OC [TMS, Tilmicosin]	Clostridium perfringens	µg/mL	=	4
C[C@H]1c2cccc(O)c2C(=O)C2=C(O)[C@]3(O)C(=O)C(C(N)=O)=C(O)[C@@H](N(C)C)[C@@H]3[C@@H](O)[C@@H]21 [DOX, Doxycycline]	Clostridium perfringens	µg/mL	=	4
CO/N=C(\C(=O)N[C@@H]1C(=O)N2C(C(=O)O)=C(CSC(=O)c3ccco3)CS[C@H]12)c1csc(N)n1 [CEF, Ceftiofur]	Clostridium perfringens	µg/mL	≤	0.25
